# testedSystem: UniProtKB Q9NR97
# Sequence (Q9NR97 27-1041): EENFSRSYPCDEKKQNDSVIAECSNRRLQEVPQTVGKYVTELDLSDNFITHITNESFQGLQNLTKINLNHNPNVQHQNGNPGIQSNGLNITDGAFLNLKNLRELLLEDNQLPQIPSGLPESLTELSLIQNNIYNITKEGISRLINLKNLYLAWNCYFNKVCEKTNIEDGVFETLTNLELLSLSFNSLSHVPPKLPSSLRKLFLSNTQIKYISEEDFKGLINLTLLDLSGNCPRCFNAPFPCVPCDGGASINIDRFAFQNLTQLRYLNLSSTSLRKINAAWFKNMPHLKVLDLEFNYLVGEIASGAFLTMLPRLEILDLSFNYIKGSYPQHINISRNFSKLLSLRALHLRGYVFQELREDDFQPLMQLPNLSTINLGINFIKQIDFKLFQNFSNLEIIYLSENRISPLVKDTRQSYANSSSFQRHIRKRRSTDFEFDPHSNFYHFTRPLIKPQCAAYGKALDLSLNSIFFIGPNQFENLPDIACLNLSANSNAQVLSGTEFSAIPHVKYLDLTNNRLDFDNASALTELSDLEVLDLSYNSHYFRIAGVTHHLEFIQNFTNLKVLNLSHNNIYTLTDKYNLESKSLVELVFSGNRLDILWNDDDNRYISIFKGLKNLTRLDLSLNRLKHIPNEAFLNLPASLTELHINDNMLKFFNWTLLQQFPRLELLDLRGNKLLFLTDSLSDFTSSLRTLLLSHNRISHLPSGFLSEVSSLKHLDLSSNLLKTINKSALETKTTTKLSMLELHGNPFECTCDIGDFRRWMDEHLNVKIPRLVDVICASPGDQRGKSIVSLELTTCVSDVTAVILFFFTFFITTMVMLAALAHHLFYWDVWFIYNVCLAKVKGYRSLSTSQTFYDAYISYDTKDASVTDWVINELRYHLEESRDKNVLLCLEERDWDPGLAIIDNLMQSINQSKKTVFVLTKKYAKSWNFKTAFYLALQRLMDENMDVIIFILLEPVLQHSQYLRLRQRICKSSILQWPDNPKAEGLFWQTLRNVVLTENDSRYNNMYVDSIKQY
# protocolNotes: HEK-Blue human TLR8 cell SEAP reporter assay (NF-κB activation)
# statedConditions: HEK-Blue human TLR8 cells, stimulation for 20 hours, Quanti Blue read at 640 nm
measurementName: EC50 (nM)
Express your answer in nM, writing the number without its unit.

compound | testedSystem | EC50 / nM
CCCN(CCC)C(=O)C1=Cc2ccc(-c3cncnc3)cc2N=C(N)C1 [VTX-135, reference compound] | UniProtKB Q9NR97 | 39

Turning now to a further record.
# EC50 of CCCN(CCC)C(=O)C1=Cc2ccc(-c3cccnc3)cc2N=C(N)C1 [VTX-133, reference compound] = 77
